biological target: Aminopeptidase N (Sus scrofa)
Sequence (P15145 whole entry): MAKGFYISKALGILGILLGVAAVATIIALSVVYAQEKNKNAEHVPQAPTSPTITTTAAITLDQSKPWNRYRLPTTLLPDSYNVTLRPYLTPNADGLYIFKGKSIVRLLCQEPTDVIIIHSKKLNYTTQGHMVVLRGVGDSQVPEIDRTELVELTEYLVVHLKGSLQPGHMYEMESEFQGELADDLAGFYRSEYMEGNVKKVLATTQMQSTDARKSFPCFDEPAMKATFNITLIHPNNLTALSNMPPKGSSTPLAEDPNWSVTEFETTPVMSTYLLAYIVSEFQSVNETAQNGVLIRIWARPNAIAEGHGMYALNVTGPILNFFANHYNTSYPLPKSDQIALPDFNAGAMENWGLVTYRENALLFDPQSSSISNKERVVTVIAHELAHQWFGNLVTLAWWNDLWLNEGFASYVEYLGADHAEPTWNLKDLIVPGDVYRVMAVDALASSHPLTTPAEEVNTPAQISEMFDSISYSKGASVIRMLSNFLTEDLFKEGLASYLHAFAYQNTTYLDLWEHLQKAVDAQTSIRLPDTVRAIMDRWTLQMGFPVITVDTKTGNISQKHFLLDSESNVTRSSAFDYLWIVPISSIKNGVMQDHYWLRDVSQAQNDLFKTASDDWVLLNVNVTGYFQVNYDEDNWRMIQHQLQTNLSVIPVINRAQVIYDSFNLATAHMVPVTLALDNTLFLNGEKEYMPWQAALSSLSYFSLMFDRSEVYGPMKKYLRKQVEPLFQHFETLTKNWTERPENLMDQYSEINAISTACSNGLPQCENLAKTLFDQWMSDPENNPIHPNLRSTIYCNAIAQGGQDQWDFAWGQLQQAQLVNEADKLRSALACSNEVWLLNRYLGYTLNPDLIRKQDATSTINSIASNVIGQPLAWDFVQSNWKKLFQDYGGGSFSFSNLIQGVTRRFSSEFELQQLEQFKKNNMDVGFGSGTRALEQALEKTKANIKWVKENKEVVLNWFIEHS
Sorting guide: entries reporting IC50 beneath 8 µM go in the Y pile, the rest go in the N pile.

For CCC(CC)C(N)P(=O)(O)Oc1ccccc1 (centres undefined) , is the recorded IC50 below the cut-off of 8 µM?
N

Follow-up entry: CCCCCC(N)P(=O)(O)O (centres undefined)
N

Follow-up entry: Cc1cc(C)c(C)c(OP(=O)(O)C(N)CCc2ccccc2)c1 (centres undefined)
Y

Follow-up entry: CCCCC(N)P(=O)(O)Oc1ccccc1 (centres undefined)
Y

Follow-up entry: CCCC(N)P(=O)(O)O (centres undefined)
N

Follow-up entry: Cc1ccc(C)c(OP(=O)(O)C(N)CCc2ccccc2)c1 (centres undefined)
N

Follow-up entry: CCc1ccc(OP(=O)(O)C(N)CCc2ccccc2)cc1 (centres undefined)
N

Follow-up entry: CCCCC(N)P(=O)(O)Oc1ccc(C)cc1 (centres undefined)
Y
